assay: NCI Yeast Anticancer Drug Screen. Data for the mlh1 rad18 strain (AID 175); settings: S. cerevisiae mlh1 rad18 strain growth inhibition; at 50.0 µM; stronger effect = higher value
This is part of a sample that, as a whole, favours compounds with a hit. Of some 79,000 tested, about 15% had one in any assay.
Binary classification by growth inhibition, with 90% as an inclusive lower bound for true; all other cases are false.

*Q* Quick check, growth inhibition >= 90%? S=c1c2ccccc2[nH]c2ccccc12
*A* false

*Q* Then O=C(Oc1ccccc1)C1CCCCC1C(=O)Oc1ccccc1 (stereo unspecified) ?
*A* false

*Q* Then O=C1OC(=O)C2C=CC=CC12 (stereo unspecified) ?
*A* false

*Q* Then CN1C(C)(C)CC(O)(C#N)CC1(C)C ?
*A* true

*Q* Then COC1C(=[N+]=[N-])C(=O)NC(=O)N1C1OC(COC(c2ccccc2)(c2ccccc2)c2ccccc2)C(O)C1O (stereo unspecified) ?
*A* false

*Q* Then Cc1ccc(S(=O)(=O)OCC(C)(C)C)cc1 ?
*A* false

*Q* Then CCCCC(=O)N/N=C(\C)[C@]1(O)Cc2c(O)c3c(c(O)c2[C@@H](OC2CC(N)C(O)C(C)O2)C1)C(=O)c1c(OC)cccc1C3=O (stereo partly specified) ?
*A* true

*Q* Then CCC(=O)/C(=C\c1ccccc1)C(=O)C(C)CN(C)C (stereo unspecified) ?
*A* false
